biological target: CYP1A2 (Homo sapiens); assay: Inhibition of human microsomal CYP1A2 expressed in baculovirus infected BTI-TN-5B1-4 cells at 10 uM incubated for 30 mins by luciferase assay relative to control; type: ADME
Sequence (P05177 whole entry): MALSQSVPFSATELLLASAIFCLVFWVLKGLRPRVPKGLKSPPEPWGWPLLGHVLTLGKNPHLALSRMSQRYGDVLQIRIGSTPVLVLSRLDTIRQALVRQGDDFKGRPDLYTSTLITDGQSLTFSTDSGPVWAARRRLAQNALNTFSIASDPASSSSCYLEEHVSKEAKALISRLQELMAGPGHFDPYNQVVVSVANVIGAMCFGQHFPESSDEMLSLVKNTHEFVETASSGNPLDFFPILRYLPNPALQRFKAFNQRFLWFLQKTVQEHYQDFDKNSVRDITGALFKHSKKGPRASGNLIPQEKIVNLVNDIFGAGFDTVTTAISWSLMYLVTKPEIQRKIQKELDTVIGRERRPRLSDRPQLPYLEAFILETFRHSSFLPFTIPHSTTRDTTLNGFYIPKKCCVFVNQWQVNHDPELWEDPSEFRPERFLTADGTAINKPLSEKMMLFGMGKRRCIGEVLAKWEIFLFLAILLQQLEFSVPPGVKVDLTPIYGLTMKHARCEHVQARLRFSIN
Below, each entry is listed alongside its reported inhibition at 0.5 h, 10 µM.
The reply should read as a number followed by its unit.

# example entries with known answers
| mol | study.target | inhibition at 0.5 h, 10 µM |
| --- | --- | --- |
| N/C(S)=N/N=C/c1cccc(Br)c1 | CYP1A2 (Homo sapiens) | 66.6% |
| COc1ccccc1/C=N/NC(N)=S | CYP1A2 (Homo sapiens) | 29.6% |
| COc1ccc(-c2cccc(/C=N/NC(N)=S)c2)cc1OC | CYP1A2 (Homo sapiens) | 64.7% |

Quick one: inhibition at 0.5 h, 10 µM for `C/C(=N\NC(N)=S)c1ccc(N)cc1` ?
11.5%

And the next one, `C/C(=N\NC(N)=S)c1ccc(O)cc1` ?
-0.75%

And the next one, `NC(=S)N/N=C/c1ccc(OCc2ccc(Cl)c(Cl)c2)cc1` ?
26.8%

---

target: CYP1A2 (Homo sapiens); test: Inhibition of human microsomal CYP1A2 expressed in baculovirus infected BTI-TN-5B1-4 cells at 10 uM incubated for 30 mins by luciferase assay relative to control; type: ADME
Below, each entry is listed alongside its reported inhibition at 0.5 h, 10 µM.
Use % as the unit, but write only the number.

| compound | inhibition at 0.5 h, 10 µM (%) |
| --- | --- |
| NC(=S)N/N=C/c1ccc(O)c(O)c1 | -6.6 |
| NC(=S)N/N=C/C(O)C(O)C(O)CO (centres undefined) | -13.2 |
| NC(=S)N/N=C/c1ccc(-c2ccccc2)cc1 | 76.6 |
| N/C(S)=N/N=C/c1ccc(Cl)c(Cl)c1 | 76.8 |
| N/C(S)=N/N=C/c1ccc([N+](=O)[O-])cc1 | 11.6 |

Quick one: inhibition at 0.5 h, 10 µM for `NC(=S)N/N=C/c1cccc(-c2ccc3c(c2)OCO3)c1` ?
101

And the next one, `NC(=S)N/N=C/c1ccccc1[N+](=O)[O-]` ?
61.6

And the next one, `NC(=S)N/N=C/c1cccc(-c2ccccc2)c1` ?
83.9

And the next one, `NC(=S)N/N=C/c1csc2ccccc12` ?
100

And the next one, `Cc1ccsc1/C=N/NC(N)=S` ?
38.3

And the next one, `NC(=S)N/N=C/c1ccccc1O` ?
18.6

And the next one, `COc1cccc(OC)c1/C=N/NC(N)=S` ?
34.3

And the next one, `COc1cc(/C=N/NC(N)=S)cc(OC)c1OC` ?
15.1

And the next one, `CN(C)c1ccc(/C=N/N=C(/N)S)c2ccccc12` ?
98.4

---

system: Leishmania infantum; assay: Antileishmanial activity against Leishmania infantum amastigote form after 72 hrs by steady-Glo reagent based assay; assay type: functional, organism-based
test.readout: pEC50
pEC50 (log units): -log10 of the concentration in mol/L.

| mol | obs.value |
| --- | --- |
| NC(=S)N/N=C/c1ccc(OCc2ccc(Cl)c(Cl)c2)cc1 | 5.21 |

Now take the following compound into account.
Quick one: pEC50 for `C[C@@H]1[C@H](O)[C@@H](C)/C=C/C=C/C=C/C=C/C=C/C=C/C=C/[C@H](O[C@@H]2O[C@H](C)[C@@H](O)[C@H](N)[C@@H]2O)C[C@@H]2O[C@](O)(C[C@@H](O)C[C@@H](O)[C@H](O)CC[C@@H](O)C[C@@H](O)CC(=O)O[C@H]1C)C[C@H](O)[C@H]2C(=O)O` ?
6.70

---

system: Trypanosoma brucei; assay: Potentiation of methotrexate-induced antitrypanosomal activity against Trypanosoma brucei Lister 427 bloodstream form at 10 uM after 72 hrs by resazurin dye-based assay relative to control; format: functional
Group membership follows Activity per the scheme class 1: < 30%; class 2: ≥ 30% and < 70%; class 3: ≥ 70%

Please review the entries below; each comes with its answer.
| compound | group |
| --- | --- |
| NC(=S)N/N=C/c1ccco1 | class 1 |
| NC(=S)N/N=C/c1cccc(-c2ccccc2)c1 | class 3 |
| NC(=S)N/N=C/c1ccc(N)cc1 | class 3 |
| NC(=S)N/N=C/C(O)C(O)C(O)CO (stereo not given) | class 1 |
| N/C(S)=N/N=C/c1cccc(Br)c1 | class 2 |
| CSc1ccc(/C=N/NC(N)=S)cc1 | class 3 |

Form: Item = `NC(=S)N/N=C/c1ccc(OCc2ccc(Cl)c(Cl)c2)cc1` ; Class = ?
class 3

And the next one, `COc1cccc(OC)c1/C=N/NC(N)=S` ?
class 1

And the next one, `NC(=S)N/N=C/c1csc2ccccc12` ?
class 2

---

Biological target: Pteridine reductase, putative (Trypanosoma brucei)
Sequence (whole entry): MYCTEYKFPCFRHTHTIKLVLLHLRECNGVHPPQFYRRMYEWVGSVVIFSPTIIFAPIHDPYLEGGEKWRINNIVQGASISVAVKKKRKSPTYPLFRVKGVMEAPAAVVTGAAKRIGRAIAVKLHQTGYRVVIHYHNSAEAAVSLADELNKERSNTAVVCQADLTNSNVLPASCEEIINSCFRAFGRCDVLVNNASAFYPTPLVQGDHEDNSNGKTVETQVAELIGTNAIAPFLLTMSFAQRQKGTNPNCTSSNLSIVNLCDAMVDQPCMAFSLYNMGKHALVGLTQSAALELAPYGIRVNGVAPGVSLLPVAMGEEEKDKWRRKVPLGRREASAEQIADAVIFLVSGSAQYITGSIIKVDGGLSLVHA
Test: Inhibition of Trypanosoma brucei PTR1 at 50 uM using H2B as substrate in presence of NADPH by photometric analysis relative to control
Calls of active or inactive are those of the source. No cut-off for these calls is given here.
test.readout: inhibition

# example entries with known answers
| compound | study.target | inhibition |
| --- | --- | --- |
| NC(=S)N/N=C/C=C/c1ccccc1 | Pteridine reductase, putative (Trypanosoma brucei) | 8.92% |
| NC(=S)N/N=C/c1cccc(-c2ccc3c(c2)OCO3)c1 | Pteridine reductase, putative (Trypanosoma brucei) | 0.16% |
| NC(=S)N/N=C/c1cccc(-c2ccccc2)c1 | Pteridine reductase, putative (Trypanosoma brucei) | 9.25% |
| NC(=S)N/N=C/C(O)C(O)C(O)CO (centres undefined) | Pteridine reductase, putative (Trypanosoma brucei) | 1.7% |
| C/C(=N\NC(N)=S)c1ccc(N)cc1 | Pteridine reductase, putative (Trypanosoma brucei) | 10.2% |

What inhibition appears in the records for this compound with Pteridine reductase, putative (Trypanosoma brucei)? `NC(=S)N/N=C/c1ccc(O)cc1`
19.6%

And the next one, `NC(=S)N/N=C/c1ccccc1[N+](=O)[O-]` ?
14.8%

And the next one, `Cc1ccsc1/C=N/NC(N)=S` ?
inactive

And the next one, `NC(=S)N/N=C/c1ccco1` ?
3.99%

And the next one, `COc1ccccc1/C=N/NC(N)=S` ?
5.67%

And the next one, `NC(=S)N/N=C/c1ccc(O)c(O)c1` ?
30.7%

And the next one, `COc1cc(/C=N/NC(N)=S)cc(OC)c1OC` ?
2.13%

And the next one, `C/C(=N\NC(N)=S)c1ccc(O)cc1` ?
26.2%

And the next one, `CN(C)c1ccc(/C=N/N=C(/N)S)c2ccccc12` ?
inactive

---

biological target: Aurora kinase B (Homo sapiens, UniProt Q96GD4); experiment: Inhibition of recombinant full-length human aurora B kinase expressed in baculovirus system at 10 uM using MBP as substrate incubated for 45 mins by ADP-glo kinase assay; conditions: probe MBP
Sequence (Q96GD4 whole entry): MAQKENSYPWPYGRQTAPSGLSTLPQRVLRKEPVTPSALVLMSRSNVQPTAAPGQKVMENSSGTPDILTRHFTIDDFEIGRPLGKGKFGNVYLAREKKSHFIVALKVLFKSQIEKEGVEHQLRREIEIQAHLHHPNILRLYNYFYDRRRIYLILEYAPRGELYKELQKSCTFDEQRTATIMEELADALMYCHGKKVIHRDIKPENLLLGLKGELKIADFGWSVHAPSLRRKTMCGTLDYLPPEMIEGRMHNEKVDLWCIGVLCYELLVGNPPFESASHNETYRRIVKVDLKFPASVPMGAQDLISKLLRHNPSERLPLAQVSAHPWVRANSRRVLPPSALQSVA
Below, each entry is listed alongside its reported inhibition at 0.75 h, 10 µM.
Use % as the unit, but write only the number.

# example entries with known answers
| molecule | readout.unit | inhibition at 0.75 h, 10 µM |
| --- | --- | --- |
| COc1cc(/C=N/NC(N)=S)cc(OC)c1OC | % | -17.7 |
| NC(=S)N/N=C/c1ccc(OCc2ccc(Cl)c(Cl)c2)cc1 | % | -6.24 |
| NC(=S)N/N=C/c1ccc(N)cc1 | % | -10.5 |
| N/C(S)=N/N=C/c1ccc([N+](=O)[O-])cc1 | % | -9.68 |

What inhibition at 0.75 h, 10 µM appears in the records for this molecule with Aurora kinase B (Homo sapiens, UniProt Q96GD4)? `NC(=S)N/N=C/c1ccc(-c2ccccc2)cc1`
-35.7

And the next one, `NC(=S)N/N=C/c1ccc(O)c(O)c1` ?
-12.2

---

Below, each entry is listed alongside its reported inhibition at 0.5 h, 10 µM.
molecular target: CYP2C9 (Homo sapiens); test: Inhibition of human microsomal CYP2C9 expressed in baculovirus infected BTI-TN-5B1-4 cells at 10 uM incubated for 30 mins by luciferase assay relative to control; assay type: ADME
Sequence (P11712 whole entry): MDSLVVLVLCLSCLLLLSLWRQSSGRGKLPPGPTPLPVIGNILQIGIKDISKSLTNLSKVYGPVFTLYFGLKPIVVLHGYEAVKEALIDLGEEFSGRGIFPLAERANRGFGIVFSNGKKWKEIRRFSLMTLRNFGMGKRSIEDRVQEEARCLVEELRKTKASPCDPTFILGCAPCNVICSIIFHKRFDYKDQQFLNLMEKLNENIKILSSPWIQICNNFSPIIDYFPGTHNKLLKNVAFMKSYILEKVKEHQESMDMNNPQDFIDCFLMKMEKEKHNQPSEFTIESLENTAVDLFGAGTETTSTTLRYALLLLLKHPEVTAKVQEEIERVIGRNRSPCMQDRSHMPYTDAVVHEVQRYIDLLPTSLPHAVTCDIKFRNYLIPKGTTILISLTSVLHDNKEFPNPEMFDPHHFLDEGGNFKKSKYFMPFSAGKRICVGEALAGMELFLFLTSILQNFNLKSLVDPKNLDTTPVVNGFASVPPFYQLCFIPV
Use % as the unit, but write only the number.

# example entries with known answers
| mol | study.target | inhibition at 0.5 h, 10 µM, % |
| --- | --- | --- |
| NC(=S)N/N=C/c1csc2ccccc12 | CYP2C9 (Homo sapiens) | 14.6 |
| C/C(=N\NC(N)=S)c1ccc(O)cc1 | CYP2C9 (Homo sapiens) | -9.01 |
| NC(=S)N/N=C/c1ccc(OCc2ccc(Cl)c(Cl)c2)cc1 | CYP2C9 (Homo sapiens) | 18.9 |
| COc1cc(/C=N/NC(N)=S)cc(OC)c1OC | CYP2C9 (Homo sapiens) | -6.01 |

Quick one: inhibition at 0.5 h, 10 µM for `Cc1ccsc1/C=N/NC(N)=S` ?
4.24

And the next one, `COc1ccc(/C=N/NC(N)=S)cc1OC` ?
-19.2

And the next one, `NC(=S)N/N=C/c1ccc(O)cc1` ?
-21.1

Hello, the source for this data is ChEMBL document CHEMBL4196006, in case you need it.
